Molecular target: various mutants of kinase EGFR (BaF3 cell lines stably transfected with kinase) (Homo sapiens, UniProt P00533, C797S/L858R/T790M)
Construct: expressed in transfected cells; host or cells: BaF3
Sequence (P00533 25-1210 T790M/C797S/L858R): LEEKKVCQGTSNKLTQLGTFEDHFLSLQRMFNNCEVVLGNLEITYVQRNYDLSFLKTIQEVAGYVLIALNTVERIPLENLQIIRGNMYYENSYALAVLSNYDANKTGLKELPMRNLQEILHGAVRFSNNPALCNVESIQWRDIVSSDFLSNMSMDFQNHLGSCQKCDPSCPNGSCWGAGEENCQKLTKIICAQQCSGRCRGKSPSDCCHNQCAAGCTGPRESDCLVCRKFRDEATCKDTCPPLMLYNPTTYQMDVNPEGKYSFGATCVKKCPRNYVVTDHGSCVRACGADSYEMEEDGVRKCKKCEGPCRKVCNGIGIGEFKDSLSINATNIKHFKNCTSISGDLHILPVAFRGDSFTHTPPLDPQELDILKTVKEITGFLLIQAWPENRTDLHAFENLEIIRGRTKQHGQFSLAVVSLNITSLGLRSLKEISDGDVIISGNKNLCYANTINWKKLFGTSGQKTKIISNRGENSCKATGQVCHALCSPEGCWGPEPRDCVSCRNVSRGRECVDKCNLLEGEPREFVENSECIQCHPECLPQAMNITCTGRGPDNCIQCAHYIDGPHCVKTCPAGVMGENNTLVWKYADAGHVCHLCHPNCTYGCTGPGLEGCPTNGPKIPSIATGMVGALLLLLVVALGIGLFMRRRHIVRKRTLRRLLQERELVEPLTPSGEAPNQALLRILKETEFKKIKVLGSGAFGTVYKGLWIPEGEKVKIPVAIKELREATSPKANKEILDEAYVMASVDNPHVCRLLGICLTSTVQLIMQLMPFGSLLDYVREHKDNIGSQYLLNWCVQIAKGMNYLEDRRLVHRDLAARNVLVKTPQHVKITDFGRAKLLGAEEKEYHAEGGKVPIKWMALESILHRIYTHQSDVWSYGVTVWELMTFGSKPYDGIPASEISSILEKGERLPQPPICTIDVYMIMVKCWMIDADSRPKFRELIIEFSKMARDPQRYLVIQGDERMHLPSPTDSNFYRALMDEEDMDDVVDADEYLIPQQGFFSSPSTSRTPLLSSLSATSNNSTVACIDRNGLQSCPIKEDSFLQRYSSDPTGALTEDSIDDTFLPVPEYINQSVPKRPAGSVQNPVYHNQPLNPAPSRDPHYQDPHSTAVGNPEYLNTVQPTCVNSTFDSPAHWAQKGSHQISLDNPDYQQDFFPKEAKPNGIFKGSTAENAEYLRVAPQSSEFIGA
Test: Growth inhibitory activity of compounds on BaF3 cell lines stably transfected with kinase (MTS, 48 h)
Type: cell-based
Conditions: BaF3 cell line stably transfected with EGFR L858R/T790M/C797S, read-out: L858R/T790M/ C797S growth inhibitory activity IC50
pIC50: −log10 of the molar value.
Quick reference for pIC50 among some molecules

Just so you know, measured pIC50 for CCc1cc(Nc2ncc(Br)c(Nc3ccc4nccnc4c3NS(C)(=O)=O)n2)c(OC(F)(F)F)cc1N1CCC(N2CCN(C)CC2)CC1 came out at 6.30 to 7.30

Just so you know, measured pIC50 for CN1CCN(C2CCN(c3c(F)cc(Nc4ncc(Br)c(Nc5ccc6nccnc6c5N(C)S(C)(=O)=O)n4)cc3F)CC2)CC1 came out at ≥ 7.30

Just so you know, measured pIC50 for CN1CCN(C2CCN(c3ccc(Nc4ncc(Cl)c(Nc5ccc6nccnc6c5N(C)S(C)(=O)=O)n4)c(F)c3F)CC2)CC1 came out at 6.30 to 7.30

Just so you know, measured pIC50 for CCc1cc(Nc2nc(Nc3ccc4nccnc4c3N(C)S(C)(=O)=O)c3cc[nH]c3n2)c(OC)nc1N1CCC(N2CCN(C)CC2)CC1 came out at ≥ 7.30

Just so you know, measured pIC50 for CCc1cc(Nc2ncc(OC)c(Nc3ccc4nccnc4c3N(C)S(C)(=O)=O)n2)c(OC)cc1N1CCC(N2CCN(C)CC2)CC1 came out at ≥ 7.30

Just so you know, measured pIC50 for COc1cc(N2CCC(N(C)C)CC2)c(C)cc1Nc1ncc(Br)c(Nc2ccc3nccnc3c2N(C2CC2)S(C)(=O)=O)n1 came out at ≥ 7.30
